Here, each record is paired with measured Positive Cytostatic Effect data.
System: panel of approximately sixty human tumor cell lines
Assay: NCI-60 human tumor cell lines screen (SRB), full panel
Type: cell-based
Conditions: one dose, 10 μM; ratio of number of cell lines with percent growth from 0 to 50 to total number of cell lines

[
  {
    "SAMPLE SMILES": "CC(=O)n1cc(/C=c2\\sc3ncnn3c2=O)c2ccccc21",
    "Positive Cytostatic Effect": "0/59"
  },
  {
    "SAMPLE SMILES": "O=c1/c(=C/Nc2ccc(Cl)cc2)sc2ncnn12",
    "Positive Cytostatic Effect": "0/59"
  },
  {
    "SAMPLE SMILES": "O=c1c(=Cc2cccs2)sc2ncnn12",
    "Positive Cytostatic Effect": "1/56"
  },
  {
    "SAMPLE SMILES": "COc1ccc(/C=c2\\sc3ncnn3c2=O)cc1OC",
    "Positive Cytostatic Effect": "0/57"
  },
  {
    "SAMPLE SMILES": "CC(=O)Oc1ccc(/C=c2\\sc3ncnn3c2=O)cc1",
    "Positive Cytostatic Effect": "2/58"
  },
  {
    "SAMPLE SMILES": "C=CCOc1ccccc1/C=c1\\sc2ncnn2c1=O",
    "Positive Cytostatic Effect": "0/59"
  },
  {
    "SAMPLE SMILES": "CCN(CC)c1ccc(/C=c2\\sc3ncnn3c2=O)cc1",
    "Positive Cytostatic Effect": "0/58"
  },
  {
    "SAMPLE SMILES": "O=C(COc1ccc(Cl)cc1/C=c1\\sc2ncnn2c1=O)Nc1ccc(Cl)cc1",
    "Positive Cytostatic Effect": "30/57"
  },
  {
    "SAMPLE SMILES": "O=C(O)CSc1nnc[nH]1",
    "Positive Cytostatic Effect": "0/59"
  },
  {
    "SAMPLE SMILES": "O=c1/c(=C/c2ccccc2F)sc2ncnn12",
    "Positive Cytostatic Effect": "0/59"
  },
  {
    "SAMPLE SMILES": "O=c1/c(=C/Nc2cccc(O)c2)sc2ncnn12",
    "Positive Cytostatic Effect": "0/59"
  },
  {
    "SAMPLE SMILES": "O=c1/c(=C/c2ccco2)sc2ncnn12",
    "Positive Cytostatic Effect": "0/56"
  }
]
